src = patent US20250313563A1

- Tgt: GSK3α (GST-full length GSK3α) (Homo sapiens (Human), UniProt P49840)
- Sequence (P49840 whole entry): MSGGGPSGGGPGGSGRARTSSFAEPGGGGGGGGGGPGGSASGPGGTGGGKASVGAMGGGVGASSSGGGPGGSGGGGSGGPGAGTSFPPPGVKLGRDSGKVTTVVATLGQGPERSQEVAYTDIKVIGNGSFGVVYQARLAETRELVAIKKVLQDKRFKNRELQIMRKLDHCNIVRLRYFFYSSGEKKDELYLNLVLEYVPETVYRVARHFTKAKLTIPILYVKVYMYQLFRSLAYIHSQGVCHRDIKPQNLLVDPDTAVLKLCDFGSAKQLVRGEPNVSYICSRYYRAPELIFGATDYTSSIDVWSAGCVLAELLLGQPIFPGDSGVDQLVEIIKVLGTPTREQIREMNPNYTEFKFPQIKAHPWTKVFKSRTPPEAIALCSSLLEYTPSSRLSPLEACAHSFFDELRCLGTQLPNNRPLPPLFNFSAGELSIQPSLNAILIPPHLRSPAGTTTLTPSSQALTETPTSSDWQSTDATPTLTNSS
- Protocol: GSK3α TR-FRET kinase assay
- Type: biochemical
- Condition info: 1 nM GSK3α, 4 μM ATP, 30 minute preincubation, Table 16; read-out: GSK3-A TR-FRET BIOCHEMICAL (TR-FRET)
Readout kind: IC50

# example entries with known answers
INSERT INTO results (compound, readout_kind, experimental_result) VALUES
  ('CCC1(c2cccc(Cc3ncccc3C(F)(F)F)c2)C2=C(CC(C)(C)CC2=O)Nc2n[nH]cc21 (stereo not shown)', 'IC50', '100 to 1000 nM'),
  ('CC[C@@]1(c2cccc(-c3c(F)cncc3OC)c2)C2=C(CC(C)(C)CC2=O)Nc2n[nH]cc21', 'IC50', '≤ 100 nM'),
  ('Cc1cc(S(=O)(=O)N2CCC3(CC2)C2=C(CC(C)(C)CC2=O)Nc2n[nH]cc23)n(C)n1', 'IC50', '≤ 100 nM'),
  ('CC1(C)CC(=O)C2=C(C1)Nc1n[nH]cc1[C@]21C[C@H](c2ccncc2)C1', 'IC50', '≤ 100 nM'),
  ('CC1(C)CC(=O)C2=C(C1)Nc1n[nH]cc1[C@]21CCCc2c(-c3ccncc3)cccc21', 'IC50', '≤ 100 nM'),
  ('CCC1(c2cccc(N(C)c3nccc(C)n3)c2)C2=C(CC(C)(C)CC2=O)Nc2n[nH]cc21 (stereo not shown) [Compound 945328]', 'IC50', '≤ 100 nM');

Next compound, IC50 to be filled in.
[ask] # input compound: CCC1(c2cccc(C(F)(F)F)c2)C2=C(CCCNC2=O)Nc2n[nH]cc21 (stereo not shown) ; wanted: its IC50
[reply] > 5000 nM

###

- Tgt: GSK3b (GST-full length GSK3b) (Homo sapiens (Human))
- Sequence (P49841 whole entry): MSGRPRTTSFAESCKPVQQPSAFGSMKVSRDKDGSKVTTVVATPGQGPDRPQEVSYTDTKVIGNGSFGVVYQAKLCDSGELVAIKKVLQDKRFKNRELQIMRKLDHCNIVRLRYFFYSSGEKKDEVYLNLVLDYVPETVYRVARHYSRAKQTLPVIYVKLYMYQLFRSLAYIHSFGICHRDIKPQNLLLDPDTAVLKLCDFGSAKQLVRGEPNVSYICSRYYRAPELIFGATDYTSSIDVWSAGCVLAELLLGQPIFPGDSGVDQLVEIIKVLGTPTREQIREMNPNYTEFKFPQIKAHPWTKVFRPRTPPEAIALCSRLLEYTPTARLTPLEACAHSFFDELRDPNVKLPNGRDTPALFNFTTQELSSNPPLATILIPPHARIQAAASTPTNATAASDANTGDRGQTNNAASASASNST
- Protocol: GSK3b TR-FRET kinase assay
- Format: biochemical
- Condition info: 1 nM GSK3b, 2 μM ATP, 30 minute preincubation, Table 16; read-out: GSK3-B TR-FRET BIOCHEMICAL (TR-FRET); IC50
pIC50: −log10 of the molar value.
Readout kind: pIC50

# example entries with known answers
INSERT INTO results (compound, experimental_result) VALUES
  ('CCC1(c2cccc(-c3ccncc3F)c2)C2=C(CC(C)(C)NC2=O)Nc2n[nH]c(C(F)F)c21 (centres unmarked) [Compound 950320]', '≥ 7.00'),
  ('CCc1cc(N(C)c2cccc(C3(CC)C4=C(CC(C)(C)CC4=O)Nc4n[nH]cc43)c2)ccn1 (centres unmarked) [Compound 917147]', '6.00 to 7.00'),
  ('CC[C@]1(C)C2=C(CC(C)(C)CC2=O)Nc2n[nH]cc21 [Compound 884020]', '< 5.30'),
  ('Cn1nccc1CN1CC2(C1)C1=C(CC(C)(C)CC1=O)Nc1n[nH]cc12 [Compound 932653]', '< 5.30'),
  ('CCC1(c2cccc(-c3ccnc4c3CCCC4)c2)C2=C(CC(C)(C)CC2=O)Nc2n[nH]cc21 (centres unmarked) [Compound 932625]', '≥ 7.00'),
  ('CC[C@@]1(c2cccc(-c3cnn(Cc4cccc(C(F)(F)F)c4)c3)c2)C2=C(CC(C)(C)NC2=O)Nc2n[nH]cc21 [Compound 949513]', '< 5.30'),
  ('CC[C@@]1(c2cccc(C(F)(F)F)c2)C2=C(Nc3n[nH]cc31)c1ccccc1C2=O [Compound 949742]', '6.00 to 7.00'),
  ('CCC1(c2cccc(-c3ccnc(O)c3)c2)C2=C(CC(C)(C)CC2=O)Nc2n[nH]cc21 (centres unmarked) [Compound 913352]', '≥ 7.00');

[ask] # value lookup — system GSK3b (GST-full length GSK3b) (Homo sapiens (Human)), readout pIC50, item CCC1(c2cccc(N(C(C)=O)C3CCCC3)c2)C2=C(CC(C)(C)CC2=O)Nc2n[nH]cc21 (centres unmarked) [Compound 912069]
[reply] ≥ 7.00

[ask] # value lookup — system GSK3b (GST-full length GSK3b) (Homo sapiens (Human)), readout pIC50, item CCC1(c2cccc(-c3c(C)nn(C)c3C)c2)C2=C(CC(C)(C)CC2=O)Nc2n[nH]cc21 (centres unmarked) [Compound 911991]
[reply] < 5.30

[ask] # value lookup — system GSK3b (GST-full length GSK3b) (Homo sapiens (Human)), readout pIC50, item CC[C@@]1(c2cccc(N(C)c3cnccn3)c2)C2=C(CC(C)(C)CC2=O)Nc2n[nH]cc21 [Compound 915316]
[reply] ≥ 7.00

[ask] # value lookup — system GSK3b (GST-full length GSK3b) (Homo sapiens (Human)), readout pIC50, item CC[C@]1(c2cccc(N(C)c3ncccn3)c2)C2=C(CC(C)(C)NC2=O)Nc2n[nH]c(Cl)c21 [Compound 951592]
[reply] < 5.30

[ask] # value lookup — system GSK3b (GST-full length GSK3b) (Homo sapiens (Human)), readout pIC50, item CC1(C)CC(=O)C2=C(C1)Nc1n[nH]cc1C21Cc2ccccc21 (centres unmarked) [Compound 917226]
[reply] 6.00 to 7.00
